EXPERIMENTAL_ENDPOINT: melting point

Worked examples follow.
COMPOUND	melting point
CC(C)(N)c1ccc(-c2nc(Nc3ccc(CCO)cc3)ncc2Cl)cc1 [Example 1]	162 to 163 °C
CC(C)(N)c1ccc(-c2nc(Nc3ccc(CCn4ccnc4)cc3)ncc2Cl)cc1F [Example 10]	112 to 120 °C
CC(C)(N)c1ccc(-c2nc(Nc3cccc(CCO)c3)ncc2Cl)cc1 [Example 2]	184 to 185 °C

Look at each compound and report its melting point.
1. CC(C)(N)c1ccc(-c2nc(Nc3ccc(CCN4CCOCC4)cc3)ncc2Cl)cc1 [Example 9]
2. CC(C)(N)c1ccc(-c2nc(Nc3ccc(-n4ccnc4)cc3)ncc2Cl)cc1 [Example 3]
3. C=CCOC(=O)NC(C)(C)c1ccc(-c2nc(Nc3ccc(CCn4ccnc4)cc3)ncc2Cl)cc1F [Example 7]
4. CC(C)(N)c1ccc(-c2nc(Nc3ccc(CCO)cc3)ncc2Cl)cc1F [Example 4]
5. C=CCOC(=O)NC(C)(C)c1ccc(-c2nc(Nc3ccc(CCn4ccnc4)cc3)ncc2Cl)cc1 [Example 5]

1: 166 to 173 °C; 2: 199 to 201 °C; 3: 88 °C; 4: 172 to 176 °C; 5: 72 to 78 °C
